Data provenance: patent US20260242478A1

- assayed_system: T1, PSMA Fab (006 PSMA Fab) (biotinylated for capture on neutravidin plates (site not stated))
- T1 construct: also called Anti-PSMA Fab
- assay_explanation: clonal phage ELISA on biotinylated PSMA Fab captured on neutravidin plates, anti-M13-HRP detection;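 further: crude clonal phage supernatants added to wells preincubated with PSMA antigen or with blocking buffer only (no wash between), briefly incubated, then washed before detecting bound phage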
Recorded Phage binding ELISA signal, Anti-PSMA Fab for the following binders
// return just the number, without any unit appended

INSERT INTO measurements (binder, numeric_readout) VALUES
  ('VTKLCIPEWMCVIQ [Phage-2809]', 0.562);

Please look up its Phage binding ELISA signal, Anti-PSMA Fab: EGKWCTPTWMCQGF [Phage-2804]
0.57

Here is the next binder: MEKWCTPRWMCVGM [Phage-2808]
0.565

Here is the next binder: GDKWCKPSWMCDFF [Phage-2816]
0.526

Here is the next binder: WENWCIPQWMCGTA [Phage-2807]
0.565

Here is the next binder: SVHMCKPPWMCQSM [Phage-2818]
0.509

Here is the next binder: FSKLCTPPWMCSVS [Phage-2813]
0.543

Here is the next binder: VPKWCTPSWMCEFT [Phage-2811]
0.56
